- Tested on: U2OS
- assay.protocol: Cytotoxicity against human U2OS cells assessed as reduction in cell viability incubated for 72 hrs by MTS assay
- Type: functional, cell-based
compounds and their reported IC50

[
  {
    "compound": "CC(C)[C@@H]1CC[C@]2(C(=O)O)CC[C@]3(C)[C@H](CC[C@@H]4[C@@]5(C)CCC(=O)C(C)(C)[C@@H]5CC[C@]43C)[C@@H]12 [DIHYDROBETULONIC ACID]",
    "reading.unit": "µM",
    "IC50": 27
  },
  {
    "compound": "CC1=CC[C@]2(C(=O)O)CC[C@]3(C)[C@H](CC[C@@H]4[C@@]5(C)CCC(=O)C(C)(C)[C@@H]5CC[C@]43C)[C@H]2[C@@H]1C",
    "reading.unit": "µM",
    "IC50": 24
  },
  {
    "compound": "CC1=CC[C@]2(C(=O)O)CC[C@]3(C)[C@H](CC[C@@H]4[C@@]5(C)Cc6nccnc6C(C)(C)[C@@H]5CC[C@]43C)[C@H]2[C@@H]1C",
    "reading.unit": "µM",
    "IC50": 46
  }
]
